Where do these numbers come from? They come from patent US7718681B2.

Molecular target: CDC25B (Homo sapiens, UniProt P30305)
Construct: Catalytic domain of CDC25B (aa 378-566) was expressed and produced in E. coli into a GST fusion protein; GST; made in house; host or cells: E. coli
Assay: CDC25B enzyme assay
Type: biochemical
Settings: catalytic domain of CDC25B (aa 378-566) GST fusion, 20 μm FDP, 1 hour at room temperature, fluorescence
Exam item: assign y to entries whose IC50 is below 5 µM and n to entries at or above 5 µM. Note that a value of exactly 5 µM receives n.

>>> print(df.to_string())
                                   molecule  class
0  COc1c(Cl)cccc1-c1nn(-c2ccccc2)cc1/C=C1\SC(=O)NC1=O      n
1  CCOc1ccc(-c2nn(-c3ccccc3)cc2C=C2SC(=O)NC2=O)cc1I [Compound 121]      y
2  O=C1NC(=O)/C(=C/c2cn(-c3ccccc3)nc2-c2cc(OCc3ccccc3)cc(OCc3ccccc3)c2)S1      y
3  COc1c(C(C)C)cc(-c2nn(-c3ccccc3)cc2/C=C2\SC(=O)NC2=O)cc1C(C)C      y
4  O=C1NC(=O)C(=Cc2cn(-c3ccccc3)nc2-c2cc(F)cc(F)c2)S1      n
5  O=C1NC(=O)/C(=C/c2cn(-c3ccccc3)nc2-c2cc(Br)c(OC(F)F)c(Br)c2)S1      y
6  C#CCN1C(=O)S/C(=C\c2cn(-c3ccccc3)nc2-c2cc(Br)c(OCC=C)c(Br)c2)C1=O      n

---

Molecular target: CDC25B (Homo sapiens)
Construct: Catalytic domain of CDC25B (aa 378-566) was expressed and produced in E. coli into a GST fusion protein; GST
Sequence (P30305 378-566 isoform P30305-2): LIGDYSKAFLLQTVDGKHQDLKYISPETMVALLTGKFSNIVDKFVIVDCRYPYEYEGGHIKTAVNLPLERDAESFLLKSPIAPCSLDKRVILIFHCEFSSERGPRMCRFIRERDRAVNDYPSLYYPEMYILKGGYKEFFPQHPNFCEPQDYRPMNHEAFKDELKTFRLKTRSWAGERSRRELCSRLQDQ
Assay: CDC25B enzyme assay
Details: catalytic domain of CDC25B (aa 378-566) GST fusion, 20 μm FDP, 1 hour at room temperature, fluorescence
pIC50: −log10 of the molar value.
Threshold check on pIC50: at or above 6 gives 1, strictly below gives -1.

>>> print(df.to_string())
                                    molecule  class
 0  COc1c(Br)cc(-c2nn(-c3ccccc3)cc2/C=C2\SC(=O)NC2=O)cc1Br     -1
 1  CCCOc1c(Cl)cccc1-c1nn(-c2ccccc2)cc1/C=C1\SC(=O)NC1=O     -1
 2  C=CCOc1ccc(-c2nn(-c3ccccc3)cc2/C=C2\SC(=O)N(CC=C)C2=O)cc1I     -1
 3  O=C1NC(=O)/C(=C/c2cn(-c3ccccc3)nc2-c2ccc(OC(F)F)c(OCC3CC3)c2)S1     -1
 4  O=C1NC(=O)/C(=C/c2cn(-c3ccccc3)nc2-c2cccc(C(F)(F)F)c2)S1      1
 5  COc1ccc(-c2nn(-c3ccccc3)cc2/C=C2\SC(=O)NC2=O)cc1I     -1
 6  O=C1NC(=O)/C(=C/c2cn(-c3ccccc3)nc2-c2cc(OC3CCCC3)cc(OC3CCCC3)c2)S1      1
 7  O=C1NC(=O)/C(=C/c2cn(-c3ccccc3)nc2-c2ccc(OCC3CC3)c(Br)c2)S1     -1
 8  CCOc1ccc(-c2nn(-c3ccccc3)cc2C=C2SC(=O)NC2=O)cc1I [Compound 115]      1
 9  O=C1NC(=O)/C(=C/c2cn(-c3ccc([N+](=O)[O-])cc3)nc2-c2cc(OCc3ccccc3)cc(OCc3ccccc3)c2)S1      1
10  O=C1NC(=O)C(=Cc2cn(-c3ccccc3)nc2-c2cccc(Br)c2)S1     -1
11  C=CCOc1c(Br)cc(-c2nn(-c3ccccc3)cc2/C=C2\SC(=O)NC2=O)cc1Br      1
12  C=CCOc1ccc(-c2nn(-c3ccccc3)cc2/C=C2\SC(=O)NC2=O)cc1Br     -1
13  CCOc1ccc(-c2nn(-c3ccccc3)cc2C=C2SC(=O)N(C)C2=O)cc1Br     -1
14  CC(C)(C)c1cc(-c2nn(-c3ccccc3)cc2/C=C2\SC(=O)NC2=O)cc(C(C)(C)C)c1O     -1

---

Listing: pIC50 of selected compounds
Target: CDC25B (Homo sapiens)
Construct: Catalytic domain of CDC25B (aa 378-566) was expressed and produced in E. coli into a GST fusion protein; GST
Sequence (P30305 378-566 isoform P30305-2): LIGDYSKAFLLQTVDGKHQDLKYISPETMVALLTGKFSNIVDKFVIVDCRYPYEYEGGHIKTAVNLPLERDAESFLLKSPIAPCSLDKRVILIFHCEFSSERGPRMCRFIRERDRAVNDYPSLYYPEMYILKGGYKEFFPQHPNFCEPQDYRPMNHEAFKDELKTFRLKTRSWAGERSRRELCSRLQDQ
Assay: CDC25B enzyme assay
Conditions: catalytic domain of CDC25B (aa 378-566) GST fusion, 20 μm FDP, 1 hour at room temperature, fluorescence
pIC50: −log10 of the molar value.
experimental.readout: pIC50

In [3]: df
Out[3]:
                            compound_string          tested_system  experimental_readout  value_measured
0  COc1ccc(-c2nn(-c3ccccc3)cc2/C=C2\SC(=O)NC2=O)cc1C(C)C  CDC25B (Homo sapiens)                 pIC50            5.69
1  O=C1NC(=O)/C(=C/c2cn(-c3ccccc3)nc2-c2cc(OCC3CC3)cc(OCC3CC3)c2)S1  CDC25B (Homo sapiens)                 pIC50            5.82
2  CCOc1ccc(-c2nn(-c3ccccc3)cc2C=C2SC(=O)NC2=O)cc1Br  CDC25B (Homo sapiens)                 pIC50            5.25

---

Target: CDC25B (Homo sapiens)
Construct: Catalytic domain of CDC25B (aa 378-566) was expressed and produced in E. coli into a GST fusion protein; GST
Experiment: CDC25B enzyme assay
Settings: catalytic domain of CDC25B (aa 378-566) GST fusion, 20 μm FDP, 1 hour at room temperature, fluorescence
Listing: IC50 of selected molecules
experimental.readout: IC50 (nM)

>>> df
                            compound_string  value_measured
0  CCCOc1c(Br)cc(-c2nn(-c3ccccc3)cc2/C=C2\SC(=O)NC2=O)cc1Br            1500
1  CCOc1ccc(-c2nn(-c3ccccc3)cc2C=C2SC(=O)N(CC)C2=O)cc1Br            1410
2  CCCOc1ccc(-c2nn(-c3ccccc3)cc2/C=C2\SC(=O)NC2=O)cc1C(C)(C)C            1480
